Just for reference, PubChem BioAssay AID1259421 is where these values come from.

- Assay Text: T. gondii ME49Luc in HeLa cells, luciferase assay, 72 h, no IFN-y (AID 1259421)
- Assay Conditions: active compounds read low, concentration not given here
In all, about 6,400 compounds went through this assay and about 610 (9.5%) were called active. For the sample, actives were picked, then their nearest neighbours and some compounds at random.
Each item that follows carries a reported activity change, negative = inhibition.
Measured Quantity: activity change, negative = inhibition (%)

• CO[C@H]1C=CO[C@@]2(C)Oc3c(C)c(O)c4c(O)c(c5c(c4c3C2=O)NC2(CCN(CC(C)C)CC2)N=5)=NC(=O)/C(C)=C\C=C/[C@H](C)[C@H](O)[C@@H](C)[C@@H](O)[C@@H](C)[C@H](OC(C)=O)[C@@H]1C = -31.1
• CNC1CCCN(c2c(F)cc3c(=O)c(C(=O)O)cn(C4CC4)c3c2OC)C1 (centres undefined) = 0.884
• N[C@@H]1CCCCN(c2c(F)cc3c(=O)c(C(=O)O)cn(C4CC4)c3c2Cl)C1 = 4.72
• N[C@@H]1CN(c2c(F)cc3c(=O)c(C(=O)O)cn([C@@H]4C[C@@H]4F)c3c2Cl)CC12CC2 = -6.27

----------
- Assay Text: T. gondii ME49Luc in HeLa cells, luciferase assay, 72 h, no IFN-y (AID 1259421)
- Assay Conditions: active compounds read low, concentration not given here
Screen size: about 6,400 compounds; about 610 (9.5%) were called active. The entries come from a sample that favours actives as a whole.
Each item that follows carries a reported activity change, negative = inhibition.
Measured Quantity: activity change, negative = inhibition (%)

* O=C1c2ccccc2CCC1CNCCc1ccc(O)cc1 (stereo unspecified) | 9.23
* COc1ccc2c(c1)OCC(Cc1ccc(OC)c(OC(C)=O)c1)C2=O (stereo unspecified) | -72
* C=CC(=O)Nc1ccccc1 | -0.419
* Nc1nc2c(ncn2[C@@H]2O[C@@H](CO)[C@@H](O)[C@H]2O)c(=O)[nH]1 | -3.02
* c1ccc(-c2cc3ccccc3[nH]2)cc1 | 106
* C[C@H](Oc1ccc(S(C)(=O)=O)cc1C(=O)N1CCN(c2ncc(C(F)(F)F)cc2F)CC1)C(F)(F)F | -27.8
* CCOC(=O)[C@H](CCc1ccccc1)N[C@@H](C)C(=O)N1C(=O)N(C)C[C@@H]1C(=O)O | 6.47
* OCc1cc2ncnc(Nc3ccc(O)c(Br)c3)c2cc1CO | -79.3
* C[C@@H]1O[C@@H](OC[C@H]2OC(Oc3c(-c4ccc(OCCO)c(OCCO)c4)oc4cc(OCCO)cc(O)c4c3=O)[C@H](O)[C@@H](O)[C@@H]2O)[C@H](O)[C@H](O)[C@H]1O (stereo partly specified) | 0.547
* COc1cnc(-n2cnc(C)n2)c2[nH]cc(C(=O)C(=O)N3CCN(C(=O)c4ccccc4)CC3)c12 | 22.1
* Cc1cccc(C)c1NC(=O)/N=C1/CCCN1C | 6.63
* CCCC[C@H](C)C[C@H](O)/C=C/[C@H]1[C@H](O)CC(=O)[C@@H]1CCCC/C=C/C(=O)O | -0.328
* Cc1cc(C)cc(C(=O)N(C)[C@H](Cc2ccc(-c3ccccc3)cc2)C(=O)N[C@@H](Cc2c[nH]c3ccccc23)C(=O)O)c1 | 13
* COc1ccc2c(c1)OCC(Cc1ccc(O)c(OC)c1)C2=O (stereo unspecified) | -0.0941
* COc1cc(OC)c2c(c1)OC(c1ccccc1)CC2=O (stereo unspecified) | 34.9
* CCC(=O)OCC(=O)[C@@]1(OC(=O)CC)[C@@H](C)CC2C3CCC4=CC(=O)C=C[C@]4(C)C3(F)[C@@H](O)C[C@@]21C (stereo partly specified) | -0.442
* COc1ccc2c(c1)OCC(Cc1ccc(OC)c(OC)c1)C2=O (stereo unspecified) | -1.15
* Cc1cc(Cn2cnc3c2C[C@@H](C(=O)O)N(C(=O)C(c2ccccc2)c2ccccc2)C3)ccc1N(C)C | 25.4
* NCCC(O)(P(=O)(O)O)P(=O)(O)O | -2.86
* COC(=O)N(C)c1c(N)nc(-c2nn(Cc3ccccc3F)c3ncccc23)nc1N | 2.65
* CCCCCCn1c(=O)c2c(ncn2C)n(C)c1=O | 11.4
